Data credit: patent US20260285853A1

Tested on: MYB mRNA
procedure details: Gene panel canonical junction qPCR assay, decrease in CJ mRNA, Table 3
Type: cell-based
condition: decrease in CJ mRNA levels, canonical junction qPCR, gene panel
endpoint label: IC50

For orientation, consider the following solved cases.
1. COc1cc2nn(C)cc2cc1NC(=O)c1ccc(N2CCC(NC3CC3)CC2)c2cc(CF)nn12 [Compound 625] :: < 100 nM
2. COc1c(NC(=O)c2ccc(N3CCC(NC4CC4)CC3)c3cc(C)nn23)cn2cc(C)nc(C)c12 [Compound 630] :: 1000 to 10000 nM
3. CCNC1CCN(c2ccc(C(=O)Nc3cn4cc(C)nc(C)c4n3)c3nc(OC)sc23)CC1 [Compound 670] :: > 10000 nM
4. COc1nc2c(N3CCC(NC4CC4)CC3)ccc(C(=O)Nc3cn4cc(C)nc(C)c4n3)c2o1 [Compound 680] :: 1000 to 10000 nM
5. Cc1cn2cc(NC(=O)c3ccc(N4C[C@@H](C)N[C@@H](C)C4)c4c3OC(C)(C)O4)cc(F)c2n1 [Compound 656] :: > 10000 nM
6. COc1nc2c(C(=O)Nc3cc(F)c4nn(C)cc4c3)ccc(N3C[C@@H](C)N[C@@H](C)C3)c2s1 [Compound 720] :: < 100 nM

# next compound below
In: Would you mind telling me what IC50 value was observed for C[C@H]1CN(c2ccc(C(=O)Nc3cc(F)c4nn(C)cc4c3)c3nc(CNS(C)(=O)=O)sc23)C[C@H](C)N1 [Compound 706] ?
Out: 100 to 1000 nM

###

# pIC50 listing for each entry below
System: HTT mRNA
procedure details: Splicing RT-qPCR assay (THP), Table 2A
Assay type: cell-based
condition: Table 2A (THP), CJ mRNA decrease, read-out: HTT CJ (decrease in canonical junction mRNA, IC50)
pIC50: −log10 of the molar value.

1. CNCC1CCCN(c2ccc(C(=O)Nc3cc4cn(C)nc4cc3OC)c3nn(C)cc23)C1 (stereo not drawn) [Compound 545] :: < 5.00
2. COCC1(N[C@H]2CCN(c3ccc(C(=O)Nc4cc(F)c5nc(C)cn5c4)c4nn(C)cc34)C2)CC1 [Compound 118] :: < 5.00
3. CN[C@H]1C[C@@H](C)N(c2ccc(C(=O)Nc3cc(F)c4nc(C)cn4c3)c3nn(C)cc23)C1 (single isomer, unassigned) [Compound 128] :: 5.00 to 6.00
4. Cc1cn2nc(NC(=O)c3ccc(N4CCC(NC5CC5)CC4)c4cn(C)nc34)cc(C)c2n1 [Compound 187] :: 6.00 to 7.00
5. Cc1c2cc(NC(=O)c3c(F)cc(N4CCC(NC5CC5)CC4)c4cn(C)nc34)cc(F)c2nn1C [Compound 403] :: < 5.00
6. CCNC1CCN(c2ccc(C(=O)Nc3cc(-n4ccc(=O)cc4)c4nc(C)cn4c3)c3nn(C)cc23)CC1 [Compound 360] :: 5.00 to 6.00
7. Cc1cc2sc(NC(=O)c3ccc(N4CCC(NC5CC5)CC4)c4cn(C)nc34)cc2c(C)n1 [Compound 559] :: 5.00 to 6.00
8. CCN[C@@H]1CCN(c2cc(O)c(C(=O)Nc3cc(F)c4nn(C)cc4c3)c3nn(C)cc23)C1 [Compound 294] :: 5.00 to 6.00

In: Consider the molecule Cn1cc2cc(NC(=O)c3ccc(N4CCC(NC5CC5)CC4)c4cn(C)nc34)c(F)cc2n1 [Compound 459] and give its measured pIC50.
Out: 5.00 to 6.00

In: Could you share which pIC50 value was measured for Cc1cn2cc(NC(=O)c3ccc(N4CCC(NC5CC5)CC4)c4ccoc34)cc(F)c2n1 [Compound 191] ?
Out: 5.00 to 6.00

In: Quick check: pIC50 of CCNC1CCN(c2ccc(C(=O)Nc3cc(C#N)c4nc(C)cn4c3)c3nn(C)cc23)CC1 [Compound 307] ?
Out: 5.00 to 6.00

###

System: HTT mRNA
procedure details: Splicing RT-qPCR assay (THP), Table 2A
Assay type: cell-based
condition: Table 2A (THP), CJ mRNA decrease, read-out: HTT CJ (decrease in canonical junction mRNA, IC50)
pIC50: −log10 of the molar value.
Overview of recorded pIC50 for various compounds

Completed entries (count: 5):
1. Cn1cc2c(N3CCC(NC4CC4)CC3)cc(F)c(C(=O)Nc3ccc4c(c3)COB4O)c2n1 :: < 5.00
2. COc1nc2nc(C)cn2cc1NC(=O)c1ccc(N2CCC(NC3CC3)CC2)c2cn(C)nc12 :: 5.00 to 6.00
3. Cc1cc2cc(NC(=O)c3c(F)cc(N4CCC(NC5CC5)CC4)c4cn(C)nc34)sc2c(C)n1 :: < 5.00
4. COc1cc2nc(C)cn2cc1NC(=O)c1cnc(N2CCC(NC3CC3)CC2)c2cn(C)nc12 :: 5.00 to 6.00
5. CCNC1CC2(C1)CN(c1ccc(C(=O)Nc3cc4cn(C)nc4cc3OC)c3nn(C)cc13)C2 :: 6.00 to 7.00

In: Please report the recorded pIC50 for Cc1cn2cc(NC(=O)c3ccc(N4CCC(N5CCNCC5)C4)c4cn(C)nc34)nc2c(C)n1 (centres unmarked) .
Out: 6.00 to 7.00

In: pIC50 for COc1cc2nn(C)cc2cc1NC(=O)c1ccc(N2CC(C3CNC3)C2)c2cn(C)nc12 ?
Out: < 5.00

In: Fill in: pIC50 of Cc1cn2cc(NC(=O)c3ccc(N4CCC(NC5CC56CC6)CC4)c4cn(C)nc34)cc(F)c2n1 (centres unmarked) is ___
Out: 6.00 to 7.00

###

Test system: MYB mRNA
procedure details: Gene panel canonical junction qPCR assay, decrease in CJ mRNA, Table 3
Format: cell-based
condition: decrease in CJ mRNA levels, canonical junction qPCR, gene panel
endpoint label: IC50

1) COc1cc2c(N3CCC(NC4CC4)CC3)ccc(C(=O)Nc3cc(CNS(C)(=O)=O)c4nn(C)cc4c3)n2n1 :: 100 to 1000 nM
2) COc1nc2c(C(=O)Nc3cc(F)c4nn(C)cc4c3)ccc(N3C[C@@H](C)N(C)[C@@H](C)C3)c2s1 :: < 100 nM
3) Cc1cn2cc(NC(=O)c3ccc(N4CCC(NC5CC5)CC4)c4cn(C)nc34)nc2c(CO)n1 :: 100 to 1000 nM

In: Recorded IC50 of COc1c(NC(=O)c2c(F)cc(N3CCC(NC4CC4)CC3)c3nc(C)sc23)cn2cc(C)nc2c1F , please.
Out: 1000 to 10000 nM

In: What value of IC50 has been reported for the following compound? Cc1cn2cc(NC(=O)c3ccc(N4CCNCC4)c4c3OCO4)cc(F)c2n1
Out: 1000 to 10000 nM

In: Need IC50 of COc1nc2c(C(=O)Nc3cc(F)c4nn(C)cc4c3)ccc(N3CC[C@@H](NC(C)(C)C)C3)c2s1 , thanks.
Out: < 100 nM

In: So what's the measured IC50 for this one? COc1cc2c(N3CCC(NC4CC4)CC3)ccc(C(=O)Nc3cc4cn(C)nc4cc3OC)n2n1
Out: < 100 nM

###

Tested on: MYB mRNA
procedure details: Gene panel canonical junction qPCR assay, decrease in CJ mRNA, Table 3
Type: cell-based
condition: decrease in canonical junction (CJ) mRNA, gene panel qPCR, Table 3
Listed below: IC50 values for each entry.

Below, 3 compounds whose answers are already recorded.
1) CCNC1CCN(c2ccc(C(=O)Nc3cc(F)c4nc(C)cn4c3)c3nnn(C)c23)CC1 :: 100 to 1000 nM
2) COc1cc2nn(C)cc2cc1NC(=O)c1c(F)cc(N2CCC(NC3CC3)CC2)c2cn(C)nc12 :: < 100 nM
3) CCNC1CCN(c2cc(F)c(C(=O)Nc3cn4ccnc(C)c4n3)c3nn(C)cc23)CC1 :: > 10000 nM

In: Which IC50 is reported with MYB mRNA for this entry: CN[C@H]1CCN(c2ccc(C(=O)Nc3cc(F)c4nc(C)cn4c3)c3c2nnn3C)C1 ?
Out: > 10000 nM

###

Test system: MYB mRNA
procedure details: Gene panel canonical junction qPCR assay, decrease in CJ mRNA, Table 3
Assay type: cell-based
condition: decrease in canonical junction (CJ) mRNA, gene panel qPCR, Table 3
Structures can show the parent of a compound that is named as a salt.
Reported values of IC50 for individual entries

1) C[C@H]1CN(c2ccc(C(=O)Nc3cc(F)c4nn(C)cc4c3)c3nn(C)cc23)C[C@H](C)N1 :: < 100 nM
2) CN[C@@H]1CCN(c2ccc(C(=O)Nc3cc(F)c4nc(C)cn4c3)c3nn(C)cc23)[C@@H]1C (single isomer, unassigned) :: < 100 nM
3) CCNC1CCN(c2ccc(C(=O)Nc3cc(F)c4nc(C)cn4c3)c3[nH]ccc23)CC1 :: > 10000 nM
4) CNC1(C)CCN(c2ccc(C(=O)Nc3cn4cc(C)nc4c(OC)n3)c3nn(C)cc23)CC1 :: < 100 nM
5) CCNC1CCN(c2ccc(C(=O)Nc3cc(Oc4cccc(C#N)c4)c4nc(C)cn4c3)c3nn(C)cc23)CC1 :: 100 to 1000 nM

In: Reported IC50 for MYB mRNA, given CCNC1CCN(c2cc(F)c(C(=O)Nc3cn4cc(C)nc4c(F)c3OCC)c3nn(C)cc23)CC1 [Compound 343, hydrochloride] ?
Out: < 100 nM

In: # query: IC50 | item CCNC1CCN(c2ccc(C(=O)Nc3cc(F)c4nc(CF)cn4c3)c3nn(C)cc23)CC1 | system: MYB mRNA
Out: < 100 nM
